Tested on: SF-295 CNS
Assay: NCI tumour cell line growth inhibition, 48 h
readout_kind: TGI

In [3]: df
Out[3]:
                                   compound     result
0  CN(C)CC(O)c1ccc(Cl)c2ccccc12 (stereo unspecified)  > 63.6 µM
1  COc1ccc(C2=Nn3c(nnc3-c3cc(Cl)cc(Cl)c3Cl)SC2)cc1     1.4 µM

Tell me its TGI given CC12CCC(CC(=O)/C1=C(/Br)I)C2(C)C (stereo unspecified) as the entry.
3.03 µM

###

Tested on: NCI-H522 lung
Assay: NCI tumour cell line growth inhibition, 48 h
Listing: TGI of selected compounds

compound	TGI
Oc1cc(Cc2ccccc2)c(Cc2ccccc2)cc1O	> 10 µM
C=CCSC1=N/C(=C\c2ccc(Cl)cc2)C(=O)N1CC=C	79.9 µM
CC(C)/C(Cl)=N/OC(=O)Nc1ccc(Br)cc1	2.97 µM
CN(C)CCNC(=O)Cn1ccc(=O)c2cc([N+](=O)[O-])ccc21	> 100 µM
CC(C)=CCN1c2ccccc2NC(=O)CC1C (centres undefined)	> 100 µM

# input for lookup
Give reported TGI value for CCCCCOc1ccc(C=Nc2ccc(CCc3ccc(N=Cc4ccc(OCCCCC)cc4)cc3)cc2)cc1
> 100 µM

###

Tested on: HOP-62 NSCLC
Experiment: NCI tumour cell line growth inhibition, 48 h
readout_kind: GI50

Field: example entries. Status: answers known.
                        structure_as_smiles  readout_kind    result
0     O=C(O)c1nc(NCc2nc3cc(Cl)ccc3o2)n[nH]1          GI50  > 100 µM
1  CCOc1ccccc1CCN=C1NC(=O)/C(=C/c2ccc3ncccc3c2)S1          GI50   1.44 µM
2  Clc1ccc(-c2cn3ccnc3c(-c3ccc(Cl)cc3)n2)cc1          GI50   31.4 µM
3  O=C1/C(=C/c2ccc([N+](=O)[O-])cc2)CN(C(=O)CCN2CCC(=NO)CC2)C/C1=C\c1ccc([N+](=O)[O-])cc1          GI50   1.91 µM

Now consider a different molecule.
Given the molecule Oc1cccc(Nc2nc3ccccc3c3occc23)c1 , write its reported GI50.
15.1 µM

###

System: K-562 leukemia
Tick one outcome: active, inactive

Recorded results for 6 molecules are shown here.
>>> df
                                   molecule  assigned_class
0  CO/N=C(\COc1ccc2c(c1)[nH]c1ccccc12)c1ccc(OC)cc1        inactive
1  CC1=C([Se]CC(OC(=O)CC[Se]c2ccccc2)C(=O)NC(C)(C)C)C(=O)c2ccccc2C1=O (configuration not stated)        inactive
2  CCc1c2c(nc3ccc(OCc4ccc(B(O)O)cc4)cc13)-c1cc3c(c(=O)n1C2)COC(=O)[C@]3(O)CC          active
3  COc1ccc2c(c1)C(=O)/C(=C/c1cccc(OCC(=O)c3ccccc3)c1)CC2        inactive
4  O=C1OCC2=C1C(c1cccc(F)c1)c1cc3c(cc1N2CCO)OCO3 (configuration not stated)          active
5  CCOc1ccccc1CCN=C1NC(=O)/C(=C/c2ccc3ncccc3c2)S1        inactive

// next entry
Just curious, what result did Clc1ccc(-c2cn3ccnc3c(-c3ccc(Cl)cc3)n2)cc1 get here?
inactive

###

Test system: SK-OV-3 ovarian
Assay: NCI tumour cell line growth inhibition, 48 h; in the data active = GI50 below about 0.43 µM; inactive = the rest
Permitted responses: active, inactive

In [3]: df
Out[3]:
                                   compound     study_system  assigned_class
0  Nc1nc2ccc(-c3nc4ccc5[nH]ncc5c4c4c3CCC4)cc2s1  SK-OV-3 ovarian        inactive
1  CC1CC(C)CC(C)C(O)/C(C#N)=C/C=C/CC(C2CCCC2C(=O)O)OC(=O)CC(O)C(C)C1 (stereo not given)  SK-OV-3 ovarian          active
2  CC1=C2C(=C[C@@](C)(CO)[C@@H]2OC(=O)N(C)CCN(C)C(=O)OC(C)(C)C)C(=O)[C@](C)(O)C12CC2  SK-OV-3 ovarian        inactive
3  O=C(/C=C(/C=C/c1ccc2[nH]ccc2c1)OB(F)F)/C=C/c1ccc2[nH]ccc2c1  SK-OV-3 ovarian        inactive

Shifting focus to the compound that follows.
Write down the call the test reported for this compound. Item: O=C1OCC2=C1C(c1cccc(F)c1)c1cc3c(cc1N2CCO)OCO3 (stereo not given)
inactive

###

Tested on: SK-MEL-2 melanoma
Assay: NCI tumour cell line growth inhibition, 48 h
readout_kind: TGI

                                   molecule    result
0                 COC1=NCc2ccccc2-c2ccccc21  > 100 µM
1  CCOc1ccccc1CCN=C1NC(=O)/C(=C/c2ccc3ncccc3c2)S1   11.5 µM
2  C[C@@]1(O)C2CC3CC1(c1ccccc1)CC(/C3=N/O)/C2=N\O (stereo partly specified)  > 100 µM
3  CC(=O)c1c(C(F)(F)F)n([O-])c2ccccc2[n+]1=O  > 100 µM
4  CN(C)CCNc1ccc2c(=O)n(CCN(C)C)c(=O)n3c4ccc(O)cc4c(=O)c1c23  0.602 µM

We next turn to a different molecule, shown below.
Under SK-MEL-2 melanoma: report TGI of O=C1C2C3C=C4c5ccccc5N(c5ccccc5)C4(C2C(=O)N1c1ccccc1)C1C(=O)N(c2ccccc2)C(=O)C31 (stereo unspecified) .
> 100 µM

###

Tested on: DMS 273 small cell lung
Assay: NCI tumour cell line growth inhibition, 48 h
readout_kind: TGI

Observe how each entry below is paired with its result.
>>> df
                                   compound    result
0                    IC[P+]1(c2ccccc2)CCCC1  > 100 µM
1  O=C(O)CCNS(=O)(=O)c1ccc(NC(=O)c2ccccc2)cc1  > 100 µM
2     Cc1cc2c(C)nn(Cc3ccccc3)c2c(C(=O)O)c1C  > 100 µM
3  O=C1CC(CC(=O)C2CCCCC2=O)C(=O)N1 (configuration not stated)  > 100 µM

Return TGI (reported value) for this compound: COc1ccc2nccc(C3=CCC4CCN(C(=O)c5ccccc5)C3C4)c2c1 (configuration not stated)
> 100 µM

Output TGI of COC(=O)Cc1cc(O)c2c(c1O)C(=O)c1ccccc1C2=O
> 100 µM

Please supply the value of reported TGI for the item Cn1c(=O)nc2n(-c3ccc(O)cc3)c3ccccc3nc-2c1=O
> 100 µM

Please supply the value of reported TGI for the item CCCCCOc1ccc(C=Nc2ccc(CCc3ccc(N=Cc4ccc(OCCCCC)cc4)cc3)cc2)cc1
> 100 µM

Return value of TGI for input O=c1ncccn1[C@@H]1O[C@H](CO)[C@H](O)C1O (some centres not stated) , no commentary.
> 100 µM

Write down TGI measured for item COc1cc(Cl)cc(=O)c(O)c1OC
> 100 µM

Return value of TGI for input COC(=O)c1sc(C(=O)OC)c2c1CS(=O)C2 , no commentary.
> 100 µM

Complete the entry with TGI for C1=C(c2ccccc2)SC(N2CCCCC2)S1 (configuration not stated)
> 100 µM

###

Tested on: HT29 colon
Experiment: NCI tumour cell line growth inhibition, 48 h
Parameter TGI: see the listing below.

Recorded TGI, per entry:
>>> print(df.to_string())
                                   compound     result
0  O=c1[nH]/c(=C/c2ccc(OCc3ccccc3)cn2)c(=O)[nH]/c1=C/c1ccccc1   > 100 µM
1              C=CCn1c(=O)c(C)cn(COCCO)c1=O   > 100 µM
2  S=C1c2ccc(Cl)cc2-n2cnnc2C2CSCN12 (stereo unspecified)   > 100 µM
3            CCC/C(Cl)=N\OC(=O)Nc1ccc(F)cc1  > 69.6 µM
4  O=C1c2cccc([N+](=O)[O-])c2C(=O)N1Cc1ccccc1   > 100 µM

Supply reported TGI belonging to this compound: N#CCCN(CCC#N)c1ccc(/C=C2\N=C(c3ccccc3)N(c3ccc(F)cc3)C2=O)cc1
> 100 µM

###

Tested on: LOX IMVI melanoma
Lab note: assign the record to one of label 1 (active), label 0 (inactive)

Example cases with answers are listed next.
>>> df
                                   compound  assigned_class
0           Oc1cccc(Nc2nc3ccccc3c3occc23)c1         label 0
1  O=C(c1ccc2ccccc2c1)c1c(C(F)(F)F)n([O-])c2ccc(C(F)(F)F)cc2[n+]1=O         label 1
2  O=S(=O)(Nc1ccc(Br)cc1)c1ccc(-c2cnc(C3CC3)o2)cc1         label 0
3  Nc1ncn([C@@H]2S[C@H](CO)[C@@H](O)[C@@H]2F)c(=O)n1         label 0
4  Cc1ccc2cnc(N)c(C#Cc3cc(C(=O)Nc4ccc(CN5CCN(C)CC5)c(C(F)(F)F)c4)cnc3C)c2c1         label 1

Recorded call for c1ccc(C2ONC3=NCCN32)cc1 (stereo not drawn) ?
label 0

Recorded test outcome, item Cc1cc([NH-])c([NH-])cc1C.[Cl][Pt+2][Cl]
label 0

Which outcome was assigned to COc1ccc(C2=Nn3c(nnc3-c3cc(Cl)cc(Cl)c3Cl)SC2)cc1 in this test?
label 0

Hi, sorry to bother you, what did the test record for CC(=O)c1c(C(F)(F)F)n([O-])c2ccccc2[n+]1=O ?
label 0

Just curious, what result did N#CC(C#N)=C/C=C(\Cl)c1ccc(Cl)cc1 get here?
label 0

How did this test come out for CO/N=C(\COc1ccc2c(c1)[nH]c1ccccc12)c1ccc(OC)cc1 ?
label 0

Returns: the outcome recorded for CCCN1C(=O)NC(=O)C(CC)(N2C(=O)c3c(F)c(F)c(F)c(F)c3C2=O)C1=O (stereo not drawn) in this assay.
label 0

What did this assay record as the result for CC1CC(C)CC(C)C(O)/C(C#N)=C/C=C/CC(C2CCCC2C(=O)O)OC(=O)CC(O)C(C)C1 (stereo not drawn) ?
label 1
